Assay Name: protein stability index of a GFP-peptide fusion (yeast GPS) (PSI 1-4); higher = more stable; sorted into four equal gates, so the index is relative within each strain
Test Conditions: san1∆
Please enter True where protein stability index is greater than or equal to 3, and False where it is lower.

[[record]]
residue_string = "KTTITRVEPETFEIPQA [SWI3]"
cat = "False"

[[record]]
residue_string = "KGSSLASAASEAIRDPK [SSN8]"
cat = "False"

[[record]]
residue_string = "SNLEKLPKYKEKKAASA [MED7]"
cat = "False"

[[record]]
residue_string = "LKNKKEIYRISFQLSKI [RPS9A]"
cat = "True"

[[record]]
residue_string = "QPGYADLEHKEDCVEEF [QCR6]"
cat = "False"

[[record]]
residue_string = "LRHMPLASIPDIFITPT [SSN2]"
cat = "False"

[[record]]
residue_string = "KAKERLQALKANDEEAY [SNF2]"
cat = "False"

[[record]]
residue_string = "QVGLNFELSFTGAPPYY [YMR129W/POM152]"
cat = "False"

[[record]]
residue_string = "ITSWYENHNKGKLWKDV [QCR9]"
cat = "True"

[[record]]
residue_string = "HTQDIIGGMRVDENGDP [RET1]"
cat = "True"

[[record]]
residue_string = "TEFSKNDLEVGVATKDK [SCL1]"
cat = "False"

[[record]]
residue_string = "TEYFENKQSVSNLSPDL [DSN1]"
cat = "True"

[[record]]
residue_string = "KAIFPNTVDGDLLKLVH [FAS1]"
cat = "False"


---

Assay Name: protein stability index of a GFP-peptide fusion (yeast GPS) (PSI 1-4); higher = more stable; sorted into four equal gates, so the index is relative within each strain
Test Conditions: san1∆
Assign classes using reported protein stability index values and the ranges low bin: < 2; mid bin: ≥ 2 and < 3; high bin: ≥ 3, please.

[[record]]
residue_string = "LEEDSKKVNGTSYKKWS [PRP8]"
cat = "high bin"

[[record]]
residue_string = "GINKNEEYRKQLDKKNE [SMC1]"
cat = "mid bin"

[[record]]
residue_string = "YIQRRLVKALEDIMVHY [RPO21]"
cat = "low bin"

[[record]]
residue_string = "QTEIKDIILGQNIKAPS [PRP8]"
cat = "mid bin"

[[record]]
residue_string = "KIYINLALGSHNKLIQF [SSN2]"
cat = "mid bin"

[[record]]
residue_string = "TQVYKLGLAKSVHHARV [RPS9A]"
cat = "low bin"

[[record]]
residue_string = "NELPDIEALYDDDTFSD [RPN2]"
cat = "high bin"

[[record]]
residue_string = "APSIGRWYQLIATGCKD [YGL100W/SEH1]"
cat = "low bin"

[[record]]
residue_string = "LKSIESLKLENSDLEGK [SMC2]"
cat = "high bin"

[[record]]
residue_string = "FQNLELETEQLSSELDS [SMC2]"
cat = "low bin"

[[record]]
residue_string = "TTIKAIFDGNYGESDIH [YMR129W/POM152]"
cat = "high bin"

[[record]]
residue_string = "VNDRSDISDSEGGLFEC [PCI8]"
cat = "high bin"


---

protein stability index reference
Assay Name: protein stability index of a GFP-peptide fusion (yeast GPS) (PSI 1-4); higher = more stable; sorted into four equal gates, so the index is relative within each strain
Test Conditions: pdr5∆
Readout: protein stability index

[[record]]
residue_string = "VVNITHHELVPKHIRLS [RPB5]"
recorded_value = 2.89

[[record]]
residue_string = "GCDENDSTVNKSITLKG [YDL088C/ASM4]"
recorded_value = 3.27

[[record]]
residue_string = "SVEWMKVSPSMCGVIVK [SIN4]"
recorded_value = 1.69

[[record]]
residue_string = "ITPMNDDQCMLITTYSK [SIN4]"
recorded_value = 2.41

[[record]]
residue_string = "QLVEITEQIKMRILSND [SRB8]"
recorded_value = 2.45

[[record]]
residue_string = "EKRHKNVPVHVSPAFRV [RPS11A]"
recorded_value = 2.72

[[record]]
residue_string = "TPNLWAEQPLPVSPLDI [RPS2]"
recorded_value = 2.07

[[record]]
residue_string = "KYSAITSSIFQESFNSV [NUT1]"
recorded_value = 2.37

[[record]]
residue_string = "DMDGVDFNQAFEGTDDN [BRN1]"
recorded_value = 3.04

[[record]]
residue_string = "CNNINKGLKENDVAVEK [BRR2]"
recorded_value = 3.68

[[record]]
residue_string = "MTEDIEQKKTATEVTPQ [RPC19]"
recorded_value = 3.2

[[record]]
residue_string = "RENLHILNEVFTNPSIV [RRP6]"
recorded_value = 2.93

[[record]]
residue_string = "SEKGFSKEQIHGSIIIL [YCS4]"
recorded_value = 2.37

[[record]]
residue_string = "IAAGTYGKVYKAKRQIN [SSN3]"
recorded_value = 2.03

[[record]]
residue_string = "DANPSSQIIARNEEILR [SMC2]"
recorded_value = 2.79

